test system: MCF7 breast; test: NCI tumour cell line growth inhibition, 48 h
quantity_measured: TGI

>  <molecule>
O=C(C/C=C/c1ccccc1)c1ccccc1

>  <TGI>
32.7 µM

$$$$
>  <molecule>
Nc1c(F)cc(-c2nc3cc(F)ccc3[se]2)cc1Br

>  <TGI>
> 100 µM

$$$$
>  <molecule>
C[CH2][Sn]([CH2]C)([O]C(=O)c1ccc(OC)c(OC)c1OC)[O]C(=O)c1ccc(OC)c(OC)c1OC

>  <TGI>
49.2 µM

$$$$
>  <molecule>
CN(C)c1ccc2nc(CC(O)(C(F)(F)F)C(F)(F)F)ccc2c1

>  <TGI>
> 10 µM

$$$$
>  <molecule>
Cc1ccc(S(=O)(=O)N2CCc3ccc(O)c4c3C2Cc2ccc3c(c2-4)OCO3)cc1 (stereo unspecified)

>  <TGI>
10.2 µM

$$$$

Now consider the entry below.
Asked: Could you tell me which TGI is on file for CCC[CH2][Pb]([Cl])([CH2]CCC)[CH2]CCC ?
Given back: 0.0361 µM
